target: recombinant human SAE enzyme (Homo sapiens, UniProt Q9UBT2); assay: SAE HTRF Enzyme Assay; conditions: class symbols A-C
Sequence (Q9UBT2 whole entry): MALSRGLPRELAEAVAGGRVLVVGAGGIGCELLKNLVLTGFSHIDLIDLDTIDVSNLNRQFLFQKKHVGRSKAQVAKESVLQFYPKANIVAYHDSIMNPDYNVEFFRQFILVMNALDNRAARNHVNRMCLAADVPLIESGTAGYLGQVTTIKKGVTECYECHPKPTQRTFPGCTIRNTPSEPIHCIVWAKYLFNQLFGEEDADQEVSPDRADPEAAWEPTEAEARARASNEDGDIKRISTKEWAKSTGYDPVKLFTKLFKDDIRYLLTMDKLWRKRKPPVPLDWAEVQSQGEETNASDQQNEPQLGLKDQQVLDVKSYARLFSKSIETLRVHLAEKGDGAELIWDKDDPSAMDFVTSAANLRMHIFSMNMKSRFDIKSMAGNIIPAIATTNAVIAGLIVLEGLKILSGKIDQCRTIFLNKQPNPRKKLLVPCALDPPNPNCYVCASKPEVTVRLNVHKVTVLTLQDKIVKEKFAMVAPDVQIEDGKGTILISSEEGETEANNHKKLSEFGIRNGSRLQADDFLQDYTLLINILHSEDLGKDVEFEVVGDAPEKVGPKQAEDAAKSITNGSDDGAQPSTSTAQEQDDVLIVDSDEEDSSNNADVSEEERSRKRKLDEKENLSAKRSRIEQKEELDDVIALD
Sequence (Q9UBE0 whole entry partner): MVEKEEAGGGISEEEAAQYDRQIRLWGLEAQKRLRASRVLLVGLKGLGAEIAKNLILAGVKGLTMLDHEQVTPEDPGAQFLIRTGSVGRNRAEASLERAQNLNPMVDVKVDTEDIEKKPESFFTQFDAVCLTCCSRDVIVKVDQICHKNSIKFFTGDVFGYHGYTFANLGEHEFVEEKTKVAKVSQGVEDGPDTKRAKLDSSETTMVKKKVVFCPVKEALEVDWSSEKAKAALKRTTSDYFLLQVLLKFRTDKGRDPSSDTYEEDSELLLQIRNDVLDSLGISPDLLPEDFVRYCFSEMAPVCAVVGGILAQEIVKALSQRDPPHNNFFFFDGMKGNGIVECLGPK
Reported endpoint: IC50

> print(dat)
                                    compound  observed.measurement
 1  NS(=O)(=O)OC[C@H]1C[C@@H](Nc2ncncc2C(=O)c2cc(F)n(Cc3cccc(Br)c3)c2)[C@@H](F)[C@@H]1O [Compound I-44]               < 10 nM
 2  NS(=O)(=O)OC[C@H]1C[C@@H](Nc2ncncc2C(=O)c2ccn(Cc3ccccc3)c2)C[C@@H]1O [Compound I-300]               < 10 nM
 3  NS(=O)(=O)OC[C@H]1C[C@@H](Nc2ncncc2C(=O)c2ccn(Cc3ccc(F)c(Cl)c3)n2)[C@@H](F)[C@@H]1O [Compound I-122]               < 10 nM
 4  NS(=O)(=O)OC[C@H]1C[C@@H](Nc2ncncc2C(=O)c2ccn(CC#CCC3CCCC3)n2)C[C@@H]1O [Compound I-59]          10 to 100 nM
 5  NS(=O)(=O)OC[C@H]1C[C@@H](Nc2ncncc2C(=O)c2ccn(Cc3cccc(Oc4ccc(F)cc4)c3)n2)[C@H](O)[C@@H]1O [Compound I-229]          10 to 100 nM
 6  CCOCCn1ccc(C(=O)c2cncnc2N[C@@H]2C[C@H](COS(N)(=O)=O)[C@@H](O)[C@H]2O)n1 [Compound I-28]          10 to 100 nM
 7  NS(=O)(=O)OC[C@H]1C[C@@H](Nc2ncncc2C(=O)c2ccn(Cc3ccc(C(F)(F)F)cc3C(F)(F)F)n2)[C@H](O)[C@@H]1O [Compound I-266]          10 to 100 nM
 8  NS(=O)(=O)OC[C@H]1C[C@@H](Nc2ccncc2C(=O)c2ccn(Cc3ccc(Cl)c(Cl)c3)c2)C[C@@H]1O [Compound I-233]               < 10 nM
 9  NS(=O)(=O)OC[C@H]1C[C@@H](Nc2ncncc2C(=O)c2ccn(Cc3ccc(F)c(I)c3)n2)[C@@H](F)[C@@H]1O [Compound I-178]               < 10 nM
10  NS(=O)(=O)OC[C@H]1C[C@@H](Nc2ncncc2C(=O)c2ccn(Cc3ccccc3)n2)C(F)(F)[C@@H]1O [Compound I-203]               < 10 nM
11  NS(=O)(=O)OC[C@H]1C[C@@H](Nc2ncncc2C(=O)c2ccn(CC3CC3c3ccccc3)c2)C[C@@H]1O (mixture of isomers) [Compound I-339]               < 10 nM
12  NS(=O)(=O)OC[C@H]1C[C@@H](Nc2ncncc2C(=O)c2ccn(Cc3cccc(C(F)(F)F)c3)c2)C[C@@H]1O [Compound I-129]               < 10 nM
13  NS(=O)(=O)OC[C@H]1C[C@@H](Nc2ncncc2C(=O)c2ccn(Cc3ccc(F)c(OC(F)(F)F)c3)n2)[C@H](O)[C@@H]1O [Compound I-134]               < 10 nM
